Tested on: HCC-2998 colon
assay_protocol: NCI tumour cell line growth inhibition, 48 h
For each record, write down the corresponding TGI.

COC(=O)c1oc([N+](=O)[O-])c(-c2ccccc2)c1-c1ccccc1    > 100 µM
COc1ccc(-c2cc(=O)c3cc4c(cc3[nH]2)OCO4)c(OC)c1    > 100 µM

Items follow; give TGI for each.
1. O=C(NC/C=C/CO)c1ccccc1
2. CNC(=O)Nn1c(SC)nc2ccccc21
3. CCN(CC)CCOc1ccc(N2Cc3cc(OC)c(OC)cc3C2=O)cc1
4. CC(=O)OC12c3ccccc3C(c3ccccc31)C1C(=O)N(c3ccccc3O)C(=O)C12 (centres undefined)

Output:
["> 100 µM", "> 100 µM", "> 100 µM", "> 100 µM"]

###

Test system: SK-MEL-2 melanoma
assay_protocol: NCI tumour cell line growth inhibition, 48 h
For each record, write down the corresponding TGI.
Numbers only, in µM.

CCOC(=O)C(CC(C)C)NC(=O)C(N)Cc1ccc(N(CCCl)CCCl)cc1 (stereo not given)    11.8

Please find the next compound below.
Input: GET TGI | system: SK-MEL-2 melanoma | item: CC1(C)CCCCC1/C=C/C(CC(O)(C(F)(F)F)C(F)(F)F)=N\Nc1ccc([N+](=O)[O-])cc1[N+](=O)[O-] (stereo not given)
Output: 30

###

Test system: COLO 205 colon
assay_protocol: NCI tumour cell line growth inhibition, 48 h
measure: TGI (µM)
Answers are plain numbers, in µM.

Example compounds with recorded TGI:
Brc1ccc2[nH]cc([C@@H]3CN[C@@H](c4c[nH]c5ccc(Br)cc45)CN3)c2c1    3.69
CN1CCN(C(=O)OCc2nc3c(N4CCOCC4)nc(-c4ccccc4)nc3n2C)CC1    3.75
COc1ncnn2ccc(-c3cnc4nc(C)n(Cc5nnc(C(C)F)o5)c4c3)c12 (stereo not given)    0.468

Please find the next compound below.
Input: Report TGI for `C=CC[C@H](O)[C@@](NC(=O)OCc1ccccc1)(Sc1ccc(C)cc1)C(F)(F)F`
Output: 39.1

###

For each record, write down the corresponding TGI.
System: IGROV1 ovarian
assay_protocol: NCI tumour cell line growth inhibition, 48 h

COc1ccc2c(c1)C(=O)/C(=C/c1ccccc1)C2    > 100 µM

Items follow; give TGI for each.
1. CCOC(=O)C(=NN(C)c1ncccc1N)C(=O)OCC
2. NCCSC1(O)C(=O)c2ccccc2-c2ccccc21 (stereo unspecified)

Output:
> 100 µM
3.73 µM

###

Tested on: SF-295 CNS
assay_protocol: NCI tumour cell line growth inhibition, 48 h
measure: TGI (µM)
One number for each entry, in µM.

Nc1nc(N)c2cc(Sc3ccc(Cl)cc3)ccc2n1    15.2

Please find the next compound below.
Input: Report TGI for `Cc1ccc([N+](=O)[O-])cc1S(=O)(=O)Nc1ccc(C(=O)/C=C/c2ccccc2)cc1`
Output: 44.1

###

Test system: CCRF-CEM leukemia
assay_protocol: NCI tumour cell line growth inhibition, 48 h; in the data active means GI50 below about 0.43 µM; inactive means the rest
Select the matching outcome among T = active, F = inactive

Answered examples (4):
COc1ccc(-c2nc(Nc3ccc(F)cc3)nc(Nc3ccc4c(c3)nc(C)n4Cc3ccccc3)n2)cc1    F
CC1(C)CC[C@]2(CO)CC[C@]3(C)C(=CC[C@@H]4[C@@]5(C)CC[C@H](NCO)C(C)(C)[C@@H]5CC[C@]43C)[C@@H]2C1    F
O=C(CSc1nc2ccc([N+](=O)[O-])cc2[nH]1)Nc1ccc([N+](=O)[O-])cc1    F
O=C1/C(=C\c2ccc(Cl)cc2)CN(C(=O)c2ccccc2)C/C1=C\c1ccc(Cl)cc1    F

Input: I would be grateful if you could indicate the recorded call for `Cl.Fc1c[c-]c(-c2ccccn2)c(F)c1.[Pt].c1ccc([PH+](c2ccccc2)c2ccccc2[PH+](c2ccccc2)c2ccccc2)cc1` .
Output: T

Input: I would be grateful if you could indicate the recorded call for `CC(=O)N[C@@H](Cc1ccc(OP(=O)(O)O)cc1)C(=O)N[C@H]1CCC(=O)N2CCC[C@@H](C(=O)NCc3cccc4ccccc34)N2C1=O` .
Output: F

Input: I would be grateful if you could indicate the recorded call for Nc1n[nH]c2ccc([C@H]3[C@@H]4C5CCC(C5)[C@@H]4c4c(ccc5[nH]ncc45)N3S(=O)(=O)C3CC3)cc12 (some centres not stated) .
Output: T

###

System: PC-3 prostate
assay_protocol: NCI tumour cell line growth inhibition, 48 h
For each record, write down the corresponding TGI.

Example molecules with recorded TGI:
Cn1c(=O)oc2cc(C(=O)CN3CCN(Cc4ccc5c(c4)OCO5)CC3)c(Cl)cc21    > 100 µM
Nc1nc(N)c2cc(Sc3ccc(Cl)cc3)ccc2n1    13.8 µM
CC[C@H](C)[C@H](NC(=O)[C@H](Cc1ccc(O)cc1)NCC(F)(F)F)C(=O)OC(C)(C)C    14.1 µM
COc1ccc2c(c1)OC(N)=C(C#N)C2c1ccc(F)c(F)c1 (centres undefined)    > 100 µM
COc1ccc(-c2c(C(C)=O)c(C)n(C3OC(COC(C)=O)C(OC(C)=O)C(OC(C)=O)C3OC(C)=O)c(=S)c2C#N)cc1 (centres undefined)    > 100 µM

Items follow; give TGI for each.
1. CC1(C)CCCCC1/C=C/C(CC(O)(C(F)(F)F)C(F)(F)F)=N\Nc1ccc([N+](=O)[O-])cc1[N+](=O)[O-] (centres undefined)
2. CC(C)(C)OC(=O)CCC1NC(=O)[C@@H]2Cc3c([nH]c4ccccc34)C(c3ccccc3)N2C1=O (some centres undefined)
3. O=C(O)CSc1nc2ccccc2[nH]1
4. COc1ccc(/C=C/C(=O)c2ccc(B(O)O)cc2)cc1O

Output:
["5.32 µM", "52.9 µM", "> 100 µM", "50.1 µM"]

###

System: HL-60(TB) leukemia
assay_protocol: NCI tumour cell line growth inhibition, 48 h
Given measured TGI, output Y if it is greater than or equal to 50 µM and N if not.

CN1C[C@@H]2CC(=O)CC[C@@H]2C[C@H]1C#N    Y

Input: Kindly determine if TGI recorded for O=C(OC1C#CCSCC#C/C=C\1)c1cnc2ccccc2n1 (stereo unspecified) is above or exactly 50 µM.
Output: Y

Input: Kindly determine if TGI recorded for `CC(=O)OCc1cc(OC(C)=O)c2cc3c(OC(C)=O)cccc3c(OC(C)=O)c2c1` is above or exactly 50 µM.
Output: N

Input: Kindly determine if TGI recorded for `CN1CCN(C(=O)OCc2nc3c(N4CCOCC4)nc(-c4ccccc4)nc3n2C)CC1` is above or exactly 50 µM.
Output: N

Input: Kindly determine if TGI recorded for `O=C(NCCNc1nccc(-c2c(-c3ccc(F)cc3)nc3sccn23)n1)Nc1cccc(C(F)(F)F)c1` is above or exactly 50 µM.
Output: Y

Input: Kindly determine if TGI recorded for `N#C/C(=C\c1ccc([N+](=O)[O-])cc1)n1nnc2cc(F)c(F)cc21` is above or exactly 50 µM.
Output: N

Input: Kindly determine if TGI recorded for `Nc1c2ccccc2nc2nccnc12` is above or exactly 50 µM.
Output: Y

Input: Kindly determine if TGI recorded for `COc1cc(/C=C(\C)c2ccc3c(c2)OCO3)cc(OC)c1OC` is above or exactly 50 µM.
Output: Y

Input: Kindly determine if TGI recorded for Cc1ccc(OC2CC(n3cnc4c(=O)[nH]c(Br)nc43)OC2Oc2ccc(C)cc2)cc1 (stereo unspecified) is above or exactly 50 µM.
Output: Y

Input: Kindly determine if TGI recorded for `O=C1CCN(CCC(F)(F)C(F)(F)C(F)(F)C(F)(F)F)C(=S)N1` is above or exactly 50 µM.
Output: Y

Input: Kindly determine if TGI recorded for `COc1ccc(/C=C2\C(=O)Nc3ccccc32)cc1OC` is above or exactly 50 µM.
Output: Y

Input: Kindly determine if TGI recorded for `NC(=S)N/N=C/c1cn(CCCl)c2ccccc12` is above or exactly 50 µM.
Output: Y

Input: Kindly determine if TGI recorded for C=C1CC2(C)CCC(OC(=O)C3(C)OC3C)C(C)(OC(C)=O)C2CC1=C(C)C (stereo unspecified) is above or exactly 50 µM.
Output: Y

###

For each record, write down the corresponding TGI.
Tested on: SF-539 CNS
assay_protocol: NCI tumour cell line growth inhibition, 48 h
Numbers only, in µM.

Fc1ccc(-c2nn3c(COc4ccccc4Cl)nnc3s2)cc1Oc1ccccc1    92.1
CO[C@@H]1C[C@H]2[C@@H]3CC[C@H]([C@@H](C)COC(C)=O)[C@@]3(C)CC[C@@H]2[C@@]2(C)CC[C@H]3C[C@]312    37.3

Please find the next compound below.
Input: Report TGI for OC1CCC(COC(c2ccccc2)(c2ccccc2)c2ccccc2)O1 (stereo not given)
Output: 32.5
